Reference source for all entries: patent US20050033056A1

target system: cDNA-expressed recombinant CYP2C19 (Homo sapiens)
Construct: purchased Gentest Corp. (Woburn, Mass.); host or cells: insect cells (microsomal preparation)
Sequence (P33261 whole entry): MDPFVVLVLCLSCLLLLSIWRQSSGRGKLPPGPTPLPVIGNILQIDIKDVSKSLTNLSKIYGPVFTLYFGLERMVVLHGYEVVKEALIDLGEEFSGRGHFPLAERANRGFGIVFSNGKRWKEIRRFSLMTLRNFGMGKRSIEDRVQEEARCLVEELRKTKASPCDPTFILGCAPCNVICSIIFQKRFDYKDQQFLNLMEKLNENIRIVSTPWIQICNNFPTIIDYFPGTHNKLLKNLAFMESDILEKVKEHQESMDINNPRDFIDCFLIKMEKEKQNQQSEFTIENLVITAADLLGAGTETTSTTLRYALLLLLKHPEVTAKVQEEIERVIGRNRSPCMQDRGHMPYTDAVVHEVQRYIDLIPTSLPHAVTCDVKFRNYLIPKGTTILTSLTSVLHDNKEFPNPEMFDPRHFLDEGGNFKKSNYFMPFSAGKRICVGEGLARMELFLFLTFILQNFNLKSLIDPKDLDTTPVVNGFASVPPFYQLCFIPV
protocol text: Apparent Ki with recombinant CYP2C19 (S-mephenyloin 4'-hydroxylation; Dixon plots, SNLR)
Type: in vitro ADME
protocol conditions: Dixon plots; recombinant CYP2C19; S-mephenyloin 30, 80, 200 μM; read-out: apparent Ki, CYP2C19, estimated by Dixon plots
readout: Ki

Request: Entry CNC(=O)Cc1ccc2ccn(C3CCN(CCc4ccccc4F)CC3)c2c1 [Compound 1] has what Ki?
Result: 25 to 45 µM

###

target system: cDNA-expressed recombinant CYP2C19 (Homo sapiens)
Construct: purchased Gentest Corp. (Woburn, Mass.); host or cells: insect cells (microsomal preparation)
protocol text: Apparent Ki with recombinant CYP2C19 (S-mephenyloin 4'-hydroxylation; Dixon plots, SNLR)
Type: in vitro ADME
protocol conditions: SNLR, competitive inhibition model; recombinant CYP2C19; read-out: apparent Ki, CYP2C19 inhibition, determined by SNLR
readout: Ki (µM)
The response must be a number in µM with no trailing unit.

Request: Give Ki (cDNA-expressed recombinant CYP2C19 (Homo sapiens)) of the following molecule: "CNC(=O)Cc1ccc2ccn(C3CCN(CCc4ccccc4F)CC3)c2c1"
Result: 48
